Origin of the recorded values: the NIST ThermoML archive (doi:10.1016/j.jct.2017.11.017)

ASSAY_NAME: activity coefficient (dimensionless); of the first substance listed, at infinite dilution; xn = mol fraction of the nth substance listed
EXPERIMENTAL_PARAMETERS: 338.15 K; 101.33 kPa; Liquid; Chromatography; x1 = 0
MEASURED_ENDPOINT: activity coefficient

compound="CCOC(C)=O [ethyl acetate] + C[n+]1ccn(CCCO)c1.N#CN=C=[N-]" measured_endpoint="activity coefficient" recorded_result=6.18
compound="C1CCCCCCC1 [cyclooctane] + C[N+]1(CCCO)CCOCC1.N#C[N-]C#N" measured_endpoint="activity coefficient" recorded_result=345
compound="CCC(C)O (stereo not given) [butan-2-ol] + C[N+]1(CCCO)CCOCC1.N#C[N-]C#N" measured_endpoint="activity coefficient" recorded_result=4.27
compound="CCC[N+](=O)[O-] [1-nitropropane] + C[n+]1ccn(CCCO)c1.N#CN=C=[N-]" measured_endpoint="activity coefficient" recorded_result=2.89
compound="CCCC=O [butanal] + C[n+]1ccn(CCCO)c1.N#CN=C=[N-]" measured_endpoint="activity coefficient" recorded_result=3.19
compound="CCCC=O [butanal] + C[N+]1(CCCO)CCOCC1.N#C[N-]C#N" measured_endpoint="activity coefficient" recorded_result=4.74
compound="C=C(C)c1ccccc1 [(1-methylethenyl)benzene] + C[N+]1(CCCO)CCOCC1.N#C[N-]C#N" measured_endpoint="activity coefficient" recorded_result=19.5
compound="CCC(=O)OC [methyl propanoate] + C[n+]1ccn(CCCO)c1.N#CN=C=[N-]" measured_endpoint="activity coefficient" recorded_result=5.73
compound="c1ccsc1 [thiophene] + C[N+]1(CCCO)CCOCC1.N#C[N-]C#N" measured_endpoint="activity coefficient" recorded_result=3.51
compound="CCOCC [diethyl ether] + C[n+]1ccn(CCCO)c1.N#CN=C=[N-]" measured_endpoint="activity coefficient" recorded_result=20.5
compound="CC(C)O [propan-2-ol] + C[n+]1ccn(CCCO)c1.N#CN=C=[N-]" measured_endpoint="activity coefficient" recorded_result=1.92
compound="CCOCC [diethyl ether] + C[N+]1(CCCO)CCOCC1.N#C[N-]C#N" measured_endpoint="activity coefficient" recorded_result=35
compound="O [water] + C[N+]1(CCCO)CCOCC1.N#C[N-]C#N" measured_endpoint="activity coefficient" recorded_result=0.384
compound="C=CCCCCCCCC [1-decene] + C[N+]1(CCCO)CCOCC1.N#C[N-]C#N" measured_endpoint="activity coefficient" recorded_result=1160
compound="CCCCCCCCCC [decane] + C[N+]1(CCCO)CCOCC1.N#C[N-]C#N" measured_endpoint="activity coefficient" recorded_result=1770

---

ASSAY_NAME: activity coefficient (dimensionless); of the first substance listed, at infinite dilution; xn = mol fraction of the nth substance listed
EXPERIMENTAL_PARAMETERS: 358.15 K; 101.33 kPa; Liquid; Chromatography; x1 = 0
MEASURED_ENDPOINT: activity coefficient

compound="CC(C)OC(C)C [diisopropyl ether] + C[n+]1ccn(CCCO)c1.N#CN=C=[N-]" measured_endpoint="activity coefficient" recorded_result=86.5
compound="CCCCCO [pentan-1-ol] + C[n+]1ccn(CCCO)c1.N#CN=C=[N-]" measured_endpoint="activity coefficient" recorded_result=4.08
compound="C1COCCO1 [1,4-dioxane] + C[N+]1(CCCO)CCOCC1.N#C[N-]C#N" measured_endpoint="activity coefficient" recorded_result=2.45
compound="CCCc1ccccc1 [propylbenzene] + C[N+]1(CCCO)CCOCC1.N#C[N-]C#N" measured_endpoint="activity coefficient" recorded_result=51
compound="C1CCCCC1 [cyclohexane] + C[N+]1(CCCO)CCOCC1.N#C[N-]C#N" measured_endpoint="activity coefficient" recorded_result=159
compound="CCC(C)(C)OC [2-methoxy-2-methylbutane] + C[n+]1ccn(CCCO)c1.N#CN=C=[N-]" measured_endpoint="activity coefficient" recorded_result=37.7
compound="C1CCCCC1 [cyclohexane] + C[n+]1ccn(CCCO)c1.N#CN=C=[N-]" measured_endpoint="activity coefficient" recorded_result=76.6
compound="CCc1ccccc1 [ethylbenzene] + C[n+]1ccn(CCCO)c1.N#CN=C=[N-]" measured_endpoint="activity coefficient" recorded_result=15.9
compound="CC(C)CO [2-methyl-1-propanol] + C[N+]1(CCCO)CCOCC1.N#C[N-]C#N" measured_endpoint="activity coefficient" recorded_result=4.12
compound="CCCCCCCC [octane] + C[n+]1ccn(CCCO)c1.N#CN=C=[N-]" measured_endpoint="activity coefficient" recorded_result=465
compound="CCC(C)O (configuration not stated) [butan-2-ol] + C[N+]1(CCCO)CCOCC1.N#C[N-]C#N" measured_endpoint="activity coefficient" recorded_result=4.15
compound="CCc1ccccc1 [ethylbenzene] + C[N+]1(CCCO)CCOCC1.N#C[N-]C#N" measured_endpoint="activity coefficient" recorded_result=26.2

---

ASSAY_NAME: activity coefficient (dimensionless); of the first substance listed, at infinite dilution; xn = mol fraction of the nth substance listed
EXPERIMENTAL_PARAMETERS: 338.15 K; 101.33 kPa; Liquid; Chromatography; x1 = 0
Recorded activity coefficient determines the group label, using category 1 (below 8), category 2 (8 to below 20), category 3 (20 or more)

molecule="CC(C)(C)O [2-methylpropan-2-ol] + C[n+]1ccn(CCCO)c1.N#CN=C=[N-]" assigned_category="category 1"
molecule="CCCO [propan-1-ol] + C[n+]1ccn(CCCO)c1.N#CN=C=[N-]" assigned_category="category 1"
molecule="C#CCCCC [1-hexyne] + C[N+]1(CCCO)CCOCC1.N#C[N-]C#N" assigned_category="category 3"
molecule="CCC(=O)CC [pentan-3-one] + C[n+]1ccn(CCCO)c1.N#CN=C=[N-]" assigned_category="category 1"
molecule="CCCOCCC [dipropyl ether] + C[N+]1(CCCO)CCOCC1.N#C[N-]C#N" assigned_category="category 3"
molecule="CCCCCC [hexane] + C[n+]1ccn(CCCO)c1.N#CN=C=[N-]" assigned_category="category 3"
molecule="CCCCCCCCC [nonane] + C[n+]1ccn(CCCO)c1.N#CN=C=[N-]" assigned_category="category 3"
molecule="CC(C)O [propan-2-ol] + C[N+]1(CCCO)CCOCC1.N#C[N-]C#N" assigned_category="category 1"
molecule="C=Cc1ccccc1 [styrene] + C[N+]1(CCCO)CCOCC1.N#C[N-]C#N" assigned_category="category 2"
molecule="C#CCCC [1-pentyne] + C[N+]1(CCCO)CCOCC1.N#C[N-]C#N" assigned_category="category 3"
molecule="CCC(=O)OC [methyl propanoate] + C[N+]1(CCCO)CCOCC1.N#C[N-]C#N" assigned_category="category 2"
molecule="Cc1cccc(C)c1 [1,3-dimethylbenzene] + C[n+]1ccn(CCCO)c1.N#CN=C=[N-]" assigned_category="category 2"
molecule="CCCCCO [pentan-1-ol] + C[n+]1ccn(CCCO)c1.N#CN=C=[N-]" assigned_category="category 1"
molecule="Cc1ccccc1C [1,2-dimethylbenzene] + C[N+]1(CCCO)CCOCC1.N#C[N-]C#N" assigned_category="category 2"

---

ASSAY_NAME: activity coefficient (dimensionless); of the first substance listed, at infinite dilution; xn = mol fraction of the nth substance listed
EXPERIMENTAL_PARAMETERS: 318.15 K; 101.33 kPa; Liquid; Chromatography; x1 = 0
Doc: threshold 4 (exclusive). Items with activity coefficient beneath it return TRUE; others return FALSE.

compound="C=Cc1ccccc1 [styrene] + C[N+]1(CCCO)CCOCC1.N#C[N-]C#N" assigned_category=FALSE
compound="c1ccsc1 [thiophene] + C[n+]1ccn(CCCO)c1.N#CN=C=[N-]" assigned_category=TRUE
compound="CCCCCO [pentan-1-ol] + C[n+]1ccn(CCCO)c1.N#CN=C=[N-]" assigned_category=FALSE
compound="Cc1ccccc1 [toluene] + C[N+]1(CCCO)CCOCC1.N#C[N-]C#N" assigned_category=FALSE
compound="CO [methanol] + C[n+]1ccn(CCCO)c1.N#CN=C=[N-]" assigned_category=TRUE

---

ASSAY_NAME: activity coefficient (dimensionless); of the first substance listed, at infinite dilution; xn = mol fraction of the nth substance listed
EXPERIMENTAL_PARAMETERS: 358.15 K; 101.33 kPa; Liquid; Chromatography; x1 = 0
activity coefficient values by entry
MEASURED_ENDPOINT: activity coefficient

compound="CCCCCCCCCC [decane] + C[N+]1(CCCO)CCOCC1.N#C[N-]C#N" measured_endpoint="activity coefficient" recorded_result=1430
compound="COC(C)=O [methyl ethanoate] + C[N+]1(CCCO)CCOCC1.N#C[N-]C#N" measured_endpoint="activity coefficient" recorded_result=4.77
compound="CCOC(C)=O [ethyl acetate] + C[N+]1(CCCO)CCOCC1.N#C[N-]C#N" measured_endpoint="activity coefficient" recorded_result=10

---

ASSAY_NAME: activity coefficient (dimensionless); of the first substance listed, at infinite dilution; xn = mol fraction of the nth substance listed
EXPERIMENTAL_PARAMETERS: 328.15 K; 101.33 kPa; Liquid; Chromatography; x1 = 0
TRUE means recorded activity coefficient is 30 or above; FALSE means it is below 30.

compound="C=COC(C)=O [vinyl acetate] + C[N+]1(CCCO)CCOCC1.N#C[N-]C#N" assigned_category=FALSE
compound="CCCC(C)=O [pentan-2-one] + C[N+]1(CCCO)CCOCC1.N#C[N-]C#N" assigned_category=FALSE
compound="CC#N [acetonitrile] + C[n+]1ccn(CCCO)c1.N#CN=C=[N-]" assigned_category=FALSE
compound="CC(C)c1ccccc1 [isopropylbenzene] + C[n+]1ccn(CCCO)c1.N#CN=C=[N-]" assigned_category=FALSE
compound="CCCCO [butan-1-ol] + C[N+]1(CCCO)CCOCC1.N#C[N-]C#N" assigned_category=FALSE
compound="CC(C)O [propan-2-ol] + C[n+]1ccn(CCCO)c1.N#CN=C=[N-]" assigned_category=FALSE
compound="CO [methanol] + C[N+]1(CCCO)CCOCC1.N#C[N-]C#N" assigned_category=FALSE
compound="C=CCCCCCCCC [1-decene] + C[N+]1(CCCO)CCOCC1.N#C[N-]C#N" assigned_category=TRUE
compound="CC(C)CC(C)(C)C [2,2,4-trimethylpentane] + C[n+]1ccn(CCCO)c1.N#CN=C=[N-]" assigned_category=TRUE
compound="CCCCCCCCC [nonane] + C[n+]1ccn(CCCO)c1.N#CN=C=[N-]" assigned_category=TRUE
compound="C=CCCCCC [1-heptene] + C[N+]1(CCCO)CCOCC1.N#C[N-]C#N" assigned_category=TRUE
compound="CC(C)(C)O [2-methylpropan-2-ol] + C[N+]1(CCCO)CCOCC1.N#C[N-]C#N" assigned_category=FALSE
compound="CCCc1ccccc1 [propylbenzene] + C[N+]1(CCCO)CCOCC1.N#C[N-]C#N" assigned_category=TRUE
